System: HSV-1
protocol.notes: HSV-1 virion infectivity (plaquing efficiency) on Vero cells after virion pretreatment
setup.conditions: Human alphaherpesvirus 1, Vero, Vero, virions preloaded with vitamin E (10 μM, BSA carrier)
Measured pEC50 by item
As a rule, pEC50 stands for the negative log10 of the concentration, concentration in M.

// query pEC50 value for entry "CC(C)(N=NC(C)(C)C(=N)N)C(=N)N.Cl.Cl"
1.51

Now, please, on to the next compound.
// query pEC50 value for entry CC(C)CC(C)(C#N)N=NC(C)(C#N)CC(C)C (centres unmarked)
2.42

---

protocol.notes: Vero cell viability after 2 h exposure to lipoperoxidators (CellTiter-Glo)
setup.conditions: African green monkey, CC50, Vero, no antioxidant, 2 h at 37°C
outcome.measure: CC50 at 2 h (mM)
Provide only the numeric value, understood in mM.

// query CC50 at 2 h value for entry CC(C)CC(C)(C#N)N=NC(C)(C#N)CC(C)C (stereo not shown) [AMVN, 2,2′-azobis(2,4-dimethylvaleronitrile)]
4

---

protocol.notes: Vero cell viability after 2 h exposure to lipoperoxidators (CellTiter-Glo)
setup.conditions: African green monkey, Vero cells, CC50, Vero, with vitamin C (10 μM)
outcome.measure: CC50 at 2 h
Put down the number, then write its unit next to it.

// query CC50 at 2 h value for entry "CC(C)(N=NC(C)(C)C(=N)N)C(=N)N.Cl.Cl"
88.4 mM

---

protocol.notes: Vero cell viability after 2 h exposure to lipoperoxidators (CellTiter-Glo)
setup.conditions: African green monkey, CC50, Vero, with vitamin C (10 μM)
outcome.measure: CC50 at 2 h (mM)
Provide only the numeric value, understood in mM.

// query CC50 at 2 h value for entry CC(C)CC(C)(C#N)N=NC(C)(C#N)CC(C)C (stereo not shown)
3.3

---

protocol.notes: Vero cell viability after 2 h exposure to lipoperoxidators (CellTiter-Glo)
setup.conditions: African green monkey, CC50, Vero, preloaded with vitamin E (10 μM, BSA carrier)
outcome.measure: CC50 at 2 h
Put down the number, then write its unit next to it.

// query CC50 at 2 h value for entry CC(C)CC(C)(C#N)N=NC(C)(C#N)CC(C)C (stereo not shown)
4.6 mM

---

System: HSV-1
protocol.notes: HSV-1 virion infectivity (plaquing efficiency) on Vero cells after virion pretreatment
setup.conditions: Human alphaherpesvirus 1, Vero, 2 h, Vero, no antioxidant, virions treated 2 h at 37°C
Measured EC50 by item
Provide only the numeric value, understood in mM.

// query EC50 value for entry CC(C)CC(C)(C#N)N=NC(C)(C#N)CC(C)C (centres unmarked) [AMVN, 2,2′-azobis(2,4-dimethylvaleronitrile)]
0.8

Now, please, on to the next molecule.
// query EC50 value for entry CC(C)(N=NC(C)(C)C(=N)N)C(=N)N.Cl.Cl [AAPH]
20.8

---

Test system: HSV-1
protocol.notes: HSV-1 virion infectivity (plaquing efficiency) on HFF cells after virion pretreatment
setup.conditions: Human alphaherpesvirus 1, HFF, 2 h, no antioxidant, virions treated 2 h at 37°C
Procedure: The inocula were removed, and the cells were washed and then incubated at 37°C in 5% CO2 until plaques were visible and well-resolved (about 2 days), at which time they were fixed and stained with crystal violet. HSV-1 suspensions of 20,000 plaque PFU in 250 μL DMEM were mixed 1:1 with 2-fold serial dilutions of the general peroxidators and were incubated in a water bath for 2 h at 37°C. Next, treated virions were diluted 1:100 before being adsorbed onto cells for 1 h at 37°C. […]
outcome.measure: EC50
Put down the number, then write its unit next to it.

// query EC50 value for entry CC(C)CC(C)(C#N)N=NC(C)(C#N)CC(C)C (centres unmarked)
1.1 mM

Now, please, on to the next compound.
// query EC50 value for entry "CC(C)(N=NC(C)(C)C(=N)N)C(=N)N.Cl.Cl"
24.7 mM
